Origin of measurements: paper PMC11864945

Test: Bioequivalence / pharmacokinetic study of compound febantel tablets after single oral dose, plasma levels by UPLC–MS/MS
Details: beagle, dog, AUC0–30, test product (T), single oral tablet, 38 beagle dogs, fasting, mean ± SD
Outcome Measure: AUC(0-t) (ng·h/mL)
I only need the number, in ng·h/mL, no unit after it.

Req: Endpoint output: AUC(0-t) of COC(=O)Nc1nc2ccc([S+]([O-])c3ccccc3)cc2[nH]1 (stereo not shown) . Value?
Resp: 1790

###

The following molecules are shown together with reported Mean stability sample ±SD values.
Assay: Stability of the analytes in beagle dog plasma (bench top, refrigerator, freeze–thaw, autosampler, short and long term storage)
Assay type: physicochemical
Settings: short term, −20°C, 48 h; dog plasma; HQC; n = 5
Write the numeric value and follow it with the unit.

As a guide, the following entries are already answered.
>>> df
                                   molecule            outcome_measure                result
0  O=C(C1CCCCC1)N1CC(=O)N2CCc3ccccc3C2C1 (stereo not shown) [Praziquantel, praziquantel]  Mean stability sample ±SD  730.20 ± 19.11 ng/mL
1  CN1CCCN=C1/C=C/c1cccs1 [Pyrantel, pyrantel]  Mean stability sample ±SD   193.96 ± 8.82 ng/mL
2  COC(=O)Nc1nc2ccc(Sc3ccccc3)cc2[nH]1 [Fenbendazole, fenbendazole]  Mean stability sample ±SD  470.60 ± 13.89 ng/mL

Next up:
Req: Endpoint output: Mean stability sample ±SD of COC(=O)Nc1nc2ccc([S+]([O-])c3ccccc3)cc2[nH]1 (stereo not shown) [Qxfendazole, oxfendazole] . Value?
Resp: 189.73 ± 8.17 ng/mL
